System: T-47D breast
test details: NCI tumour cell line growth inhibition, 48 h
endpoint name: GI50

Use these answered entries as a reference point.
[
  {
    "molecule": "CCCCCCCC/C=C/CCCCCCCCC1=NCCN1CCO",
    "GI50": "2.96 µM"
  },
  {
    "molecule": "CC(=O)c1c(C(F)(F)F)n([O-])c2ccc(Cl)cc2[n+]1=O",
    "GI50": "2.31 µM"
  },
  {
    "molecule": "COc1ccc(-c2ccc(/C=N/n3c(COc4ccccc4Cl)nn(CN4CCN(C)CC4)c3=S)o2)c([N+](=O)[O-])c1",
    "GI50": "22.1 µM"
  }
]

GI50 reading for CN(C)c1ccc(C(=C2C=CC(=[N+](C)C)C=C2)c2ccc(N(C)C)cc2)cc1 (tested in a mixture with another compound) : 0.0389 µM

// provenance: PubChem BioAssay (NCI)
